# maps each entry to its RP-LC retention time
Experiment: gradient 5% acetonitrile 3 min, to 50% in 2 min, to 85% in 15 min, held 3 min, 100 µL/min
Conditions: column: Zorbax Extend-C18 2.1 x 50 mm; eluents: water / acetonitrile, 0.1% formic acid
Expressed in s, but write only the number.

[[record]]
molecule = "O=C(NCC1(N2CCOCC2)CCOC1)Nc1ccccc1 (centres undefined)"
assayendpoint = "RP-LC retention time"
datavalue = 572

[[record]]
molecule = "Cc1nnc2c(=O)n(CC(=O)NCc3cc(F)cc(F)c3)c3cccnc3n12"
assayendpoint = "RP-LC retention time"
datavalue = 686

[[record]]
molecule = "COC(=O)c1ccc(NC(=O)C(=O)NC(C)Cc2cccs2)cc1 (centres undefined)"
assayendpoint = "RP-LC retention time"
datavalue = 900

[[record]]
molecule = "COCc1cc(=O)n(CC(=O)Nc2cccc(F)c2)c(N)n1"
assayendpoint = "RP-LC retention time"
datavalue = 618

[[record]]
molecule = "CC1CN(C2CCCCC2)c2nc3c(c(=O)n(CCN4CCOCC4)c(=O)n3C)n2C1 (centres undefined)"
assayendpoint = "RP-LC retention time"
datavalue = 662

[[record]]
molecule = "Cc1cc(=O)n(CC(=O)Nc2cccc(C)c2C)c(N2CCOCC2)n1"
assayendpoint = "RP-LC retention time"
datavalue = 673


Prompt line: Return RP-LC retention time for the following molecule: COc1c(C=O)c(O)cc2c1C(=O)c1ccccc1C2=O
Response line: 967

Prompt line: Return RP-LC retention time for the following molecule: Cc1cccc(Nc2nc3ccncc3n(Cc3ccccc3)c2=O)c1
Response line: 673

Prompt line: Return RP-LC retention time for the following molecule: Cc1ccc(-c2nnc(CC(=O)NCCc3cccs3)o2)cc1
Response line: 771

Prompt line: Return RP-LC retention time for the following molecule: CCn1c(C)c(C(=O)C(C)N(C(=O)c2ccc(C)cc2)C2CC2)c(C)c1C(=O)OC (centres undefined)
Response line: 1040

Prompt line: Return RP-LC retention time for the following molecule: CCCN1C(=O)c2c(C(=O)NCc3ccccc3F)ncn2CC1(C)C(=O)NC1CCCC1 (centres undefined)
Response line: 787

Prompt line: Return RP-LC retention time for the following molecule: COCCc1nncn1C1CCN(S(=O)(=O)c2ccc(Cl)c(C)c2)CC1
Response line: 769

Prompt line: Return RP-LC retention time for the following molecule: CCCCn1cc(S(=O)(=O)N2CCN(c3ccc(C)cc3)CC2)c2cccnc21
Response line: 1220

Prompt line: Return RP-LC retention time for the following molecule: CC(C)n1cnnc1C1CCN(C(=O)Cc2c[nH]c3ccccc23)CC1
Response line: 626

* * *

Experiment: gradient 5% acetonitrile 3 min, to 50% in 2 min, to 85% in 15 min, held 3 min, 100 µL/min
Details: column: Zorbax Extend-C18 2.1 x 50 mm; eluents: water / acetonitrile, 0.1% formic acid
# maps each entry to its RP-LC retention time
Expressed in s, but write only the number.

Prompt line: Return RP-LC retention time for the following molecule: O=C(NCc1ccccc1)Nc1c(-c2ccccc2)nc2ccccn12
Response line: 626

Prompt line: Return RP-LC retention time for the following molecule: Cc1nc2ccc(Cl)cn2c(=O)c1NC(=O)c1ccc([N+](=O)[O-])cc1Cl
Response line: 668

Prompt line: Return RP-LC retention time for the following molecule: COc1ccccc1CNC(=O)C1(c2ccc(NC(C)=O)cc2)CCC1
Response line: 736

Prompt line: Return RP-LC retention time for the following molecule: C[C@]12CCC(=O)C[C@@H]1CC[C@@H]1[C@@H]2CC[C@@]2(C)[C@H]1CC[C@]2(C)O
Response line: 1050

* * *

Experiment: gradient 5% acetonitrile 3 min, to 50% in 2 min, to 85% in 15 min, held 3 min, 100 µL/min
Details: column: Zorbax Extend-C18 2.1 x 50 mm; eluents: water / acetonitrile, 0.1% formic acid
Outcome label depends on RP-LC retention time relative to 700 s: at/above gives T, below gives F.

[[record]]
compound = "Cc1ccc(-c2cn3cc(C(=O)NC(C)c4cccnc4)ccc3n2)cc1C (stereo not given)"
classlabel = "F"


Note: attention shifts to another entry.
Prompt line: Evaluate COc1ccc(-c2ncc3c(n2)CCN(S(=O)(=O)c2ccc(OC)cc2)C3)cc1 : RP-LC retention time at minimum 700 s?
Response line: T

* * *

Assay: gradient 5% acetonitrile 3 min, to 50% in 2 min, to 85% in 15 min, held 3 min, 100 µL/min
Conditions: column: Zorbax Extend-C18 2.1 x 50 mm; eluents: water / acetonitrile, 0.1% formic acid
assayEndpoint: RP-LC retention time (s)
Expressed in s, but write only the number.

Some solved cases for reference:
[[record]]
compound = "Cc1ccc2nc(-c3ccc(O)cc3)c(Nc3ccc4c(c3)OCO4)n2c1"
assayendpoint = "RP-LC retention time"
datavalue = 633

[[record]]
compound = "COC(=O)c1ccc(C2CC(=O)NC3=C2C(=O)CC(C)(C)C3)cc1 (configuration not stated)"
assayendpoint = "RP-LC retention time"
datavalue = 675

[[record]]
compound = "CCOc1cccc(Cn2c(=O)c3sccc3n(Cc3nc(-c4ccccc4C)no3)c2=O)c1"
assayendpoint = "RP-LC retention time"
datavalue = 1190

[[record]]
compound = "CC(=O)Nc1ccc(NC(=O)C(=O)NCCN2CCN(c3ccc(Cl)cc3)CC2)cc1"
assayendpoint = "RP-LC retention time"
datavalue = 588

[[record]]
compound = "O=C(COc1ccc(Cl)cc1)NCC1(O)CCOCC1"
assayendpoint = "RP-LC retention time"
datavalue = 623

[[record]]
compound = "CCOC(=O)c1noc2nc(C)nc(N3CCN(Cc4ccccc4)CC3)c12"
assayendpoint = "RP-LC retention time"
datavalue = 616


Prompt line: Return RP-LC retention time for the following compound: COc1cc([C@@H]2c3cc4c(cc3[C@H](O)[C@@H](CO)[C@@H]2C(=O)NCc2ccc(F)cc2)OCO4)cc(OC)c1OC
Response line: 720

* * *

Test: gradient 5% acetonitrile 3 min, to 50% in 2 min, to 85% in 15 min, held 3 min, 100 µL/min
Conditions: column: Zorbax Extend-C18 2.1 x 50 mm; eluents: water / acetonitrile, 0.1% formic acid
assayEndpoint: RP-LC retention time (s)
Expressed in s, but write only the number.

[[record]]
molecule = "Cn1nc(C(=O)NC2CCN(c3cc(-c4ccccc4)[nH]n3)CC2)c2ccccc21"
assayendpoint = "RP-LC retention time"
datavalue = 792


Prompt line: Return RP-LC retention time for the following molecule: CCC(C)NC(=O)c1n[nH]c2c1CC(C)CC2 (stereo not drawn)
Response line: 777

Prompt line: Return RP-LC retention time for the following molecule: Cc1cc(C(=O)NCc2ccc(C)o2)c2cc(Br)ccc2n1
Response line: 801

* * *

# maps each entry to its RP-LC retention time
Assay: gradient 5% acetonitrile 3 min, to 50% in 2 min, to 85% in 15 min, held 3 min, 100 µL/min
Settings: column: Zorbax Extend-C18 2.1 x 50 mm; eluents: water / acetonitrile, 0.1% formic acid
Expressed in s, but write only the number.

Some solved cases for reference:
[[record]]
mol = "Cc1n[nH]c(C)c1S(=O)(=O)N1CCOCC1"
unitannotation = "s"
datavalue = 582

[[record]]
mol = "Cc1[nH]c(C(=O)N2CCC(CC(=O)NCc3ccc4c(c3)OCO4)CC2)c(C)c1C"
unitannotation = "s"
datavalue = 774


Attention now shifts to the item below.
Prompt line: Return RP-LC retention time for the following compound: Nc1cc(C2CCN(C(=O)Nc3ccc(Cl)cc3)CC2)no1
Response line: 722

* * *

# maps each entry to its RP-LC retention time
Experiment: gradient 5% acetonitrile 3 min, to 50% in 2 min, to 85% in 15 min, held 3 min, 100 µL/min
Settings: column: Zorbax Extend-C18 2.1 x 50 mm; eluents: water / acetonitrile, 0.1% formic acid
Expressed in s, but write only the number.

[[record]]
mol = "COc1cc2nc(N3CCC(N4CCCCC4)CC3)nc(NC3CCCCCC3)c2cc1OC"
datavalue = 662

[[record]]
mol = "O=C(Cc1nnc(-c2cnccn2)o1)NCc1ccc(Cl)cc1"
datavalue = 698


Attention now shifts to the item below.
Prompt line: Return RP-LC retention time for the following compound: O=C(Nc1ccc(OCc2nnc(-c3ccccc3)o2)cc1)c1n[nH]c2c1CCCC2
Response line: 886

* * *

Test: gradient 5% acetonitrile 3 min, to 50% in 2 min, to 85% in 15 min, held 3 min, 100 µL/min
Conditions: column: Zorbax Extend-C18 2.1 x 50 mm; eluents: water / acetonitrile, 0.1% formic acid
# maps each entry to its RP-LC retention time

Some solved cases for reference:
[[record]]
compound = "CCC(C)NC(=O)COc1nc(C)nc2onc(-c3cccc(F)c3)c12 (centres undefined)"
assayendpoint = "RP-LC retention time"
datavalue = "932 s"

[[record]]
compound = "CN(C)S(=O)(=O)c1ccc2c(c1)N(CC(=O)NCc1ccccn1)C(=O)C1CCCCN21 (centres undefined)"
assayendpoint = "RP-LC retention time"
datavalue = "646 s"

[[record]]
compound = "COc1cccc2oc(-c3ccccc3)cc(=O)c12"
assayendpoint = "RP-LC retention time"
datavalue = "900 s"

[[record]]
compound = "CCOc1ccc(C(C)NC(=O)c2nnc(-c3ccc(S(=O)(=O)N(C)C)cc3)o2)cc1 (centres undefined)"
assayendpoint = "RP-LC retention time"
datavalue = "923 s"

[[record]]
compound = "Cn1cnc2cc(CNC(=O)c3ccc(F)cc3)ccc21"
assayendpoint = "RP-LC retention time"
datavalue = "577 s"

[[record]]
compound = "Cc1cc(C)cc(C(=O)N2CCCC(C(=O)NCCN(C)C)C2)c1 (centres undefined)"
assayendpoint = "RP-LC retention time"
datavalue = "599 s"

[[record]]
compound = "COc1ccc(C2(C(=O)N3CCn4ccnc4C3C(C)C)CC2)cc1 (centres undefined)"
assayendpoint = "RP-LC retention time"
datavalue = "568 s"

[[record]]
compound = "Cc1cccc(Cn2nc(-c3nc(C)no3)ccc2=O)c1"
assayendpoint = "RP-LC retention time"
datavalue = "789 s"

[[record]]
compound = "COc1ccc(S(=O)(=O)NC2CCN(c3ccc(=O)n(CC4CC4)n3)C2)cc1Cl (centres undefined)"
assayendpoint = "RP-LC retention time"
datavalue = "800 s"

[[record]]
compound = "CC(=O)N(C1CCOCC1)C1CCN(C(=O)c2ccc(C)s2)CC1"
assayendpoint = "RP-LC retention time"
datavalue = "673 s"


Prompt line: Return RP-LC retention time for the following compound: O=C(c1nnc(-c2ccc(S(=O)(=O)N3CCCCC3)cc2)o1)N1CCN(C2CCCCC2)CC1
Response line: 700 s

Prompt line: Return RP-LC retention time for the following compound: CC1CCc2nc3ncn(CC(=O)NCCC4=CCCCC4)c(=O)c3cc2C1 (centres undefined)
Response line: 847 s

Prompt line: Return RP-LC retention time for the following compound: O=C(CN1CCC(c2nc(-c3cccc(F)c3)no2)CC1)Nc1ccc2c(c1)OCO2
Response line: 719 s

Prompt line: Return RP-LC retention time for the following compound: CCc1cccc(Nc2c(-c3nc(C)no3)cnc3nc(C)ccc23)c1
Response line: 835 s

Prompt line: Return RP-LC retention time for the following compound: COCCNC(=O)N1CCCC(C)(C(=O)NCc2ccccc2)C1 (centres undefined)
Response line: 639 s

Prompt line: Return RP-LC retention time for the following compound: Cc1[nH]c(C)c(S(=O)(=O)N2CCC(C(=O)N3CCc4ccccc43)CC2)c1C(=O)N1CCCCC1
Response line: 778 s

Prompt line: Return RP-LC retention time for the following compound: CCOc1ccc(N2C=C(C(=O)N3CCOCC3)S(=O)(=O)c3ccc(Cl)cc32)cc1
Response line: 893 s

Prompt line: Return RP-LC retention time for the following compound: CN1c2ccc(F)cc2C(=O)NC12CCN(C(=O)NCc1ccc(F)cc1)CC2
Response line: 750 s

Prompt line: Return RP-LC retention time for the following compound: O=C(NC1CC1)c1cnn2c(-c3ccccn3)ccnc12
Response line: 687 s
